method summary: Mouse pharmacokinetic study, intravenous dosing
Assay type: in vivo
run conditions: male, C57BL/6, mouse, iv; plasma, 10 mg/kg i.v., time 4 h; read-out: Parent compound concentration following intravenous administration
Grouping by measured concentration at 4 h is done with the following cut points: small value (below 7 ng/mL), mid value (7 ng/mL to below 20 ng/mL), large value (20 ng/mL or more)

C=C(CC(=O)O[C@H]1C[C@H]2CC[C@]1(C)C2(C)C)C(=O)OCC(=O)O
small value
C=C(CC(=O)OCCCCCC)C(=O)OCC(=O)NS(=O)(=O)N(C)C
small value
C=C(CC(=O)O[C@H](CC)CCCCC)C(=O)OCC(=O)O
mid value
C=C(CC(=O)OC1CCCCCCC1)C(=O)OCc1nnn[nH]1
mid value
C=C(CC(=O)O[C@H](C)CCCCCC)C(=O)OCc1nn[nH]n1
small value
C=C(CC(=O)O[C@H](C)CCCCCC)C(=O)OCCC(=O)O
large value
C=C(CC(=O)OC(C)(C)CCCCCC)C(=O)OCC(=O)O
large value
C=C(CC(=O)OC12CC3CC(CC(C3)C1)C2)C(=O)OCC(=O)O
small value
C=C(CC(=O)O[C@H](C)CCCCCC)C(=O)OCC(=O)O
large value
C=C(CC(=O)O[C@@H](C)CCCCCC)C(=O)OCCC(=O)O
small value
C=C(CC(=O)OC1CC2(CCC2)C1)C(=O)OCC(=O)O
small value
C=C(CC(=O)O[C@@H](CC)CCCCC)C(=O)OCC(=O)O
mid value
C=C(CC(=O)OCCCCCC)C(=O)OCC(=O)O
small value
C=C(CC(=O)OC(C)(C)CCCCC)C(=O)OCC(=O)O
small value
C=C(CC(=O)O[C@@H](C)CCCCCC)C(=O)OCc1nn[nH]n1
small value
C=C(CC(=O)O[C@@H](C)CCCCCC)C(=O)OCCc1nnn[nH]1
small value

---

method summary: Mouse pharmacokinetic study, oral administration
Type: in vivo
run conditions: male, C57BL/6, po; mouse plasma, Example 112 dosed orally at 100 mg/kg (Intermediate 8 = metabolite), time 1 h; read-out: Example 112 and Intermediate 8 concentrations following oral administration
measured attribute: concentration at 1 h (ng/mL)

C=C(CC(=O)O[C@H](C)CCCCCC)C(=O)OCC(=O)O [Example 112]
27900
C=C(CC(=O)O[C@H](C)CCCCCC)C(=O)O [Intermediate 8]
4710

---

Tested on: IL-6 cytokine output from THP-1s
method summary: THP-1 AlphaLISA IL-6 cytokine assay
Assay type: cell-based, human
run conditions: Homo sapiens; PMA-differentiated THP-1 cells, LPS 24 hr then Nigericin 1 hour
The compounds listed here are annotated with their IC50.
measured attribute: IC50 (nM)

C=C(CC(=O)OC1CCCCCCC1)C(=O)OC1CN(C(C)=O)C1 [Example 63]
2500
C=C(CC(=O)OCCCCCCCC)C(=O)OC(C)C(=O)NCC(=O)O (centres unmarked) [Example 102]
1100
C=C(CC(=O)OCCCCCCCC)C(=O)OCCC(=O)NC [Example 110]
4400
C=C(CC(=O)OCCCCCCCC)C(=O)OCCN1CCCC1=O [Example 5]
2000
C=C(CC(=O)OCCCC)C(=O)OCCS(=O)(=O)c1ccc(C)cc1 [Example 39]
7300

---

The molecules listed here are annotated with their concentration at 0.5 h.
method summary: Mouse pharmacokinetic study, oral administration
Assay type: in vivo
run conditions: male, C57BL/6, mouse, plasma, po, 100 mg/kg, plasma, male C57BL/6 mice, oral gavage 100 mg/kg, 0.5 h; read-out: Parent compound concentrations following oral administration, Time 0.5 h
Protocol: Pharmacokinetic studies were carried out in 6-8-week-old male C57BL/6 mice having free access to food and water. […] For both intravenous and oral routes, the mice were restrained manually at the designated time points, with ca. 110 μL of blood being taken into K2EDTA tubes via the facial vein. Blood samples were put on ice and centrifuged to obtain plasma samples from which the concentration at each time point was measured by LC-MS/MS.
measured attribute: concentration at 0.5 h (ng/mL)

C=C(CC(=O)O[C@@H](C)CCCCCC)C(=O)OCCC(=O)O
5120
C=C(CC(=O)O[C@H](CC)CCCCC)C(=O)OCC(=O)O
27900
C=C(CC(=O)OC(C)(C)CCCCC)C(=O)OCC(=O)O
31500
C=C(CC(=O)OC1C(C)(C)CC1(C)C)C(=O)OCC(=O)O
4600
C=C(CC(=O)O[C@@H](C)CCCCCC)C(=O)OCCc1nnn[nH]1
109
